Cited source: patent US4732989A

Reported MIC values for the following compounds.
Tested on: B. Fragilis ATCC 11295
Test name: MIC/MBC anti-anaerobic screen, strain D
Format: cell-based
Test context: Bacteroides fragilis, ATCC11295, 48 h, 37° C., read-out: Minimum Inhibitory Concentration (MIC)
Description: The screening panel utilized in this Example consisted of 5 strains of Bacteroides fragilis. All assays were carried out in 96 well microtitre plates. […] The Minimum Inhibitory Concentration (MIC) was read visually. […] The Minimum Bactericidal Concentration (MBC) was determined by taking a 50 ul aliquot from each well and placing it in fresh medium.
Structures can show the parent of a compound that is named as a salt.
Write it as a number; the unit µg/mL goes unstated.

Here's what some known entries look like.
Compound | Result units | MIC
Cc1nccn1CC(C1=NCCN1c1ccc(Cl)cc1Cl)c1ccccc1 (centres unmarked) [Example 21, dihydrochloride] | µg/mL | 3.1
CCCCCCCCCCN1CCN=C1C(Cn1ccnc1)c1ccccc1.Cl.Cl (centres unmarked) [Example 26] | µg/mL | 3.1
Clc1ccc(N2CCN=C2C(Cn2ccnc2)c2ccccc2)c(Cl)c1 (centres unmarked) [Example 3, hydrochloride] | µg/mL | 0.8

Prompt: Item CSc1nccn1CC(C1=NCCN1c1ccc(Cl)cc1Cl)c1ccccc1 (centres unmarked) [Example 22, dihydrochloride] : provide MIC
Completion: 3.1

Prompt: Item Clc1ccc(CN2CCN=C2C(Cn2ccnc2)c2ccccc2)c(Cl)c1 (centres unmarked) [Example 15] : provide MIC
Completion: 3.1
